Lin28A ZKD (Homo sapiens, UniProt Q9H9Z2): reported pIC50 for various compounds.
Sequence (Q9H9Z2 121-187): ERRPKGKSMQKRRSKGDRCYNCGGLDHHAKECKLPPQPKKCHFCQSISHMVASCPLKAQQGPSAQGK
The quantity pIC50 is defined as the negative base-10 logarithm of the molar concentration.

CCc1cc(=O)[nH]c(Nc2cc(Cl)ccc2O)n1 [Ln7]	4.56

Now let's try a different one.
Entry O=c1cccc(-c2nc3cc(F)c(O)cc3c(=O)[nH]2)[nH]1 [Ln115] — recorded pIC50 = 4.91

Data provenance: paper PMC9688808
